System: androgen receptor (AR)
Assay: AR degradation activity in 22Rv1 cells (Western blot)
Format: cell-based
Settings: 22Rv1 cell line, 24 hours after administration; DC50 = concentration for 50% target protein degradation
Threshold-based label: DC50 under 0.2 nM gives t, DC50 not under 0.2 nM gives f.

molecule	category
CC1(C)C(NC(=O)c2ccc(N3CCC(CN4CCN(c5ccc6c(c5)CN([C@H]5CCC(=O)NC5=O)C6=O)CC4)CC3)nc2)C(C)(C)C1Oc1ccc(C#N)c2ncccc12 (some centres unmarked) [Compound 2-29]	t
CC1(C)C(NC(=O)c2ccc(N3CCC(CN4CCN(c5ccc6c(c5)C(=O)N(C5CCC(=O)NC5=O)C6=O)CC4)CC3)cc2)C(C)(C)C1Oc1ccc(C#N)c2ncccc12 (centres unmarked) [Compound 2-21]	f
CC1(C)[C@H](NC(=O)c2ccc(N3CCC(CN4CCN(c5ccc6c(c5)C(=O)N(C5CCC(=O)NC5=O)C6=O)CC4)CC3)c(F)c2)C(C)(C)[C@H]1Oc1ccc(C#N)c2ncccc12 (some centres unmarked) [Compound 2-22]	f
CC1(C)C(NC(=O)c2ccc(N3CCC(CN4CCN(c5ccc6c(c5)CN([C@H]5CCC(=O)NC5=O)C6=O)CC4)CC3)c(F)c2)C(C)(C)C1Oc1ccc(C#N)c2ncccc12 (some centres unmarked) [Compound 2-32]	f
CC1(C)[C@H](NC(=O)c2ccc(N3CCC(CN4CCN(c5ccc6c(c5)CN([C@H]5CCC(=O)NC5=O)C6=O)CC4)CC3)cc2)C(C)(C)[C@H]1Oc1ccc(C#N)c2ncccc12 [Compound 2-49]	f
